- EXPERIMENTAL_TARGET: T1, human ANGPTL3/8 complex (human, UniProt Q9Y5C1 17-460; Q6UXH0 22-198, limits assumed)
- T1 sequence 1: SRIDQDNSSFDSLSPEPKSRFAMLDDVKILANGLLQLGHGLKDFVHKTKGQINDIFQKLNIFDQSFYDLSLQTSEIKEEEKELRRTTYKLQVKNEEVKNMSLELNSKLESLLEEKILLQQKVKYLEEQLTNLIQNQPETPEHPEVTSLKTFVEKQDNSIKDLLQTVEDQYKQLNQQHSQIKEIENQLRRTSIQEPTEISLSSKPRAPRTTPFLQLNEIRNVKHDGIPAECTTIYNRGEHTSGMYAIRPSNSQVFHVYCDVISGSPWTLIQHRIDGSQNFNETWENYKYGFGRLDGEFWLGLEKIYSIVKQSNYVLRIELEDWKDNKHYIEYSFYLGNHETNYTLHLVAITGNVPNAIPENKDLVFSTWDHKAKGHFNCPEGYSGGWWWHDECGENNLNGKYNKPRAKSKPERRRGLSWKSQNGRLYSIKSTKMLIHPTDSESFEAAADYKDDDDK
- T1 sequence 2: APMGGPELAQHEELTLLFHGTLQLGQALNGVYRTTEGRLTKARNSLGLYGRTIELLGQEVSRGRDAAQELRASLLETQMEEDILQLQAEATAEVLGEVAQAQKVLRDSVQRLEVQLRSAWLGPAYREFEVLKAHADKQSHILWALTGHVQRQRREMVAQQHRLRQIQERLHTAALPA
- ASSAY_METHOD_TEXT: cell-based or functional assay
Each entry below carries its reported % Max Derepression LPL.
Response body: numeric value in %, unit text excluded.

Ab with LC variant having a D33T mutation (SEQ ID NO:23) and a HC of SEQ ID NO:6 (antibody, human IgG4 S228P, kappa, F234A L235A, V domains shown, also called D33T Ab) VH: QVTLKESGPTLVKPTQTLTLTCTFSGFSLSISGVGVGWIRQPPGKALEWLALIYRNDDKRYSPSLKSRLTITKDTSKNQVVLTLTNMDPVDTATYYCARTYSSGWYGNWFDPWGQGTLVTVSS VL: DIVMTQTPLSLPVTPGEPASISCRSSQSLLDSTDGNTYLDWYLQKPGQSPQLLIYMLSYRASGVPDRFSGSGSGTDFTLKISRVEAEDVGIYYCMQRIEFPLTFGGGTKVEIKR    105
Ab with LC variant having a D33A mutation (SEQ ID NO:22) and a HC of SEQ ID NO:6 (antibody, human IgG4 S228P, kappa, F234A L235A, V domains shown, also called D33A Variant Ab; D33A Ab) VH: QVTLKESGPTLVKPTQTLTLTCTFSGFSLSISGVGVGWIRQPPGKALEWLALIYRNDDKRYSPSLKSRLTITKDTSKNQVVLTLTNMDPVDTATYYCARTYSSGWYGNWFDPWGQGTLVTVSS VL: DIVMTQTPLSLPVTPGEPASISCRSSQSLLDSADGNTYLDWYLQKPGQSPQLLIYMLSYRASGVPDRFSGSGSGTDFTLKISRVEAEDVGIYYCMQRIEFPLTFGGGTKVEIKR    103
Ab with LC variant having a D31S mutation (SEQ ID NO:21) and a HC of SEQ ID NO:6 (antibody, human IgG4 S228P, kappa, F234A L235A, V domains shown, also called D31S Variant Ab; D31S Ab) VH: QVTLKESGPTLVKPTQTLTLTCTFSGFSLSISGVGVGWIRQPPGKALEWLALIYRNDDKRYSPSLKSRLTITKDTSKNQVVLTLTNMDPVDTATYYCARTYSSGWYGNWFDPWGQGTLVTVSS VL: DIVMTQTPLSLPVTPGEPASISCRSSQSLLSSDDGNTYLDWYLQKPGQSPQLLIYMLSYRASGVPDRFSGSGSGTDFTLKISRVEAEDVGIYYCMQRIEFPLTFGGGTKVEIKR    106

Proceed to the following item.
Asked: Sample Ab with LC variant having a E99Q mutation (SEQ ID NO:25) and a HC of SEQ ID NO:6 (antibody, human IgG4 S228P, kappa, F234A L235A, V domains shown, also called E99Q Variant Ab; E99Q Ab) VH: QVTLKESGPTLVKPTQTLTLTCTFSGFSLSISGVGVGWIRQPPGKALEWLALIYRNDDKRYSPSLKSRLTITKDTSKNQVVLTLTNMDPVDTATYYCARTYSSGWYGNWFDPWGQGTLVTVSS VL: DIVMTQTPLSLPVTPGEPASISCRSSQSLLDSDDGNTYLDWYLQKPGQSPQLLIYMLSYRASGVPDRFSGSGSGTDFTLKISRVEAEDVGIYYCMQRIQFPLTFGGGTKVEIKR — what was its % Max Derepression LPL?
Given back: 106

Cited source for all entries: patent US20200199213A1
